Tested on: Zymoseptoria tritici
measurement.description: Leaf blotch of wheat (SEPTTR) disease control on wheat seedlings
Assay type: in vivo
Set-up: key: A: > 80; B: ≤ 80; C: Not Tested; D: No Activity Observed in the Reported Assay
condition.parameters: HV application at 100 ppm; 3 Day Curative; wheat leaf blotch
metric.name: SEPTTR 3DC disease control rating, HV activity

{"columns": ["molecule", "result"],
 "data": [
  ["CCC(CC)[C@H](Oc1ccc(Cl)cc1Cl)[C@H](C)OC(=O)[C@H](C)NC(=O)c1nccc(OC)c1O", "D"],
  ["COc1ccnc(C(=O)NC(C)C(=O)OC(C)C(Oc2ccccc2)c2cccs2)c1O (centres unmarked)", "B (≤ 80)"],
  ["CCCOC(CC)C(Oc1ccccc1)C(C)OC(=O)C(C)NC(=O)c1nccc(OC)c1O (centres unmarked) [Cmpd 295]", "B (≤ 80)"],
  ["CCC(CC)C(Oc1cc(F)cc(Cl)c1)C(C)OC(=O)C(CC(C)C)NC(=O)c1nccc(OC)c1O (centres unmarked)", "D"],
  ["CCC(CC)[C@@H](Oc1cccc(F)c1)[C@H](C)OC(=O)[C@@H](NC(=O)c1nccc(OC)c1O)C(C)C", "D"]
]}

Dear colleague, could you send me SEPTTR 3DC disease control rating, HV activity for each of the items below? Thanks.
1. COc1ccnc(C(=O)NC(C)C(=O)OC(C)C(OC(=O)c2ccccc2)C(C)C)c1O (centres unmarked)
2. COc1ccnc(C(=O)NC(C)C(=O)OC(C)C(Oc2cccc(-c3ccccc3)c2)C(C)C)c1O (centres unmarked)

D
B (≤ 80)

====

Test system: Alternaria solani
measurement.description: Tomato early blight (ALTESO) disease control
Type: in vivo
condition.parameters: 100 ppm, 1 Day Protectant
metric.name: ALTESO disease control, 1DP

Solved entries:
{"columns": ["compound", "ALTESO disease control, 1DP"],
 "data": [
  ["COc1ccnc(C(=O)N[C@@H](C)C(=O)O[C@@H](C)[C@H](Oc2ccccc2)C(C)C)c1OC(C)=O", "B (≤ 80)"],
  ["CCC(C)C(Oc1ccccc1)C(C)OC(=O)C(C)NC(=O)c1nccc(OC)c1OC(C)=O (centres unmarked)", "D"],
  ["COc1ccnc(C(=O)N[C@@H](C)C(=O)O[C@@H](C)[C@H](Oc2cc(F)cc(Cl)c2)c2ccccc2)c1OC(C)=O", "D"],
  ["COc1ccnc(C(=O)N[C@@H](C)C(=O)O[C@@H](C)[C@H](Oc2cccc(F)c2)c2ccccc2)c1OCOC(C)=O", "B (≤ 80)"],
  ["COc1ccnc(C(=O)N[C@@H](C)C(=O)O[C@@H](C)[C@@H](CC(C)C)Oc2ccccc2)c1OCOC(C)=O", "B (≤ 80)"],
  ["COc1ccnc(C(=O)N[C@H](C)C(=O)O[C@H](C)[C@@H](Oc2ccccc2)c2ccccc2)c1OCOC(C)=O", "B (≤ 80)"]
]}

For each of the items listed, what is its ALTESO disease control, 1DP?
1. C=CC(C)C(Oc1ccccc1)C(C)OC(=O)C(C)NC(=O)c1nccc(OC)c1OCOC(C)=O (centres unmarked)
2. COc1ccnc(C(=O)N[C@H](C)C(=O)O[C@H](C)[C@@H](Oc2ccccc2)C(C)C)c1OCOC(C)=O

1. B (≤ 80)
2. B (≤ 80)

Record ALTESO disease control, 1DP per entry; entries follow.
1. CCC(CC)[C@@H](Oc1ccccc1)[C@H](C)OC(=O)[C@H](C)NC(=O)c1nccc(OC)c1OCOC(C)=O
2. CCC(CC)[C@@H](Oc1ccccc1)[C@H](C)OC(=O)[C@H](C)NC(=O)c1nccc(OC)c1OC(C)=O

B (≤ 80)
B (≤ 80)

Provide the reported ALTESO disease control, 1DP of each entry below, same order.
1. COc1ccnc(C(=O)N[C@@H](C)C(=O)O[C@@H](C)[C@H](Oc2ccccc2)c2ccccc2)c1OCOC(C)=O
2. COc1ccnc(C(=O)N[C@@H](C)C(=O)O[C@@H](C)[C@H](Oc2cc(F)cc(Cl)c2)C(C)C)c1OCOC(C)=O
3. CC[C@@H](CCOC)[C@@H](Oc1ccccc1)[C@H](C)OC(=O)[C@H](C)NC(=O)c1nccc(OC)c1OCOC(C)=O

1: B (≤ 80); 2: D; 3: B (≤ 80)

Give ALTESO disease control, 1DP for each listed item.
1. COc1ccnc(C(=O)N[C@@H](C)C(=O)O[C@@H](C)[C@@H](Oc2ccccc2)C(C)C)c1OCOC(C)=O
2. COc1ccnc(C(=O)N[C@@H](C)C(=O)O[C@@H](C)[C@H](Oc2ccccc2)C2CCCC2)c1OCOC(C)=O
3. CCC(CC)[C@@H](Oc1ccc(F)cc1)[C@H](C)OC(=O)[C@H](C)NC(=O)c1nccc(OC)c1OCOC(C)=O
4. COc1ccnc(C(=O)N[C@@H](C)C(=O)O[C@@H](C)[C@H](Oc2ccccc2)C(C)C)c1OCOC(C)=O
5. COc1ccnc(C(=O)N[C@@H](C)C(=O)O[C@@H](C)[C@H](Oc2cccc(Cl)c2)C(C)C)c1OC(C)=O

1. B (≤ 80)
2. B (≤ 80)
3. D
4. B (≤ 80)
5. B (≤ 80)

====

Tested on: Puccinia triticina
measurement.description: Wheat brown rust (PUCCRT) disease control on wheat seedlings
Type: in vivo
condition.parameters: low volume application, 125.1 g/H, 3 Day Curative, wheat brown rust
metric.name: LV activity at 125.1 g/H PUCCRT 3DC (disease control rating)

{"columns": ["compound", "result"],
 "data": [
  ["COc1ccnc(C(=O)N[C@@H](C)C(=O)O[C@@H](C)[C@H](Oc2ccc(C)cc2)C(C)(C)C)c1OC(C)=O [Cmpd 1059]", "A (> 80)"],
  ["CCC[C@@H](Oc1cccc(OC)c1)[C@H](C)OC(=O)[C@H](C)NC(=O)c1nccc(OC)c1OC(C)=O [Cmpd 1063]", "A (> 80)"],
  ["COCC(OC(=O)C(C)NC(=O)c1nccc(OC)c1OCOC(C)=O)C(Oc1ccccc1)C(C)C (stereo not shown) [Cmpd 1095]", "B (≤ 80)"],
  ["C=CC[C@@H](Oc1cc(F)cc(Cl)c1)[C@H](C)OC(=O)[C@H](C)NC(=O)c1nccc(OC)c1OC(C)=O [Cmpd 1080]", "B (≤ 80)"]
]}

====

System: Zymoseptoria tritici
measurement.description: Leaf blotch of wheat (SEPTTR) disease control on wheat seedlings
Assay type: in vivo
condition.parameters: HV application at 100 ppm; 1 Day Protectant; wheat leaf blotch
metric.name: SEPTTR 1DP disease control rating, HV activity

As a guide, the following entries are already answered.
{"columns": ["compound", "result"],
 "data": [
  ["CCCOC(CC)C(Oc1ccccc1)C(C)OC(=O)C(NC(=O)c1nccc(OC)c1OCOC(C)=O)C(C)C (centres unmarked)", "A (> 80)"],
  ["CCC(CC)C(Oc1ccc(C(F)(F)F)cc1)C(C)OC(=O)C(C)NC(=O)c1nccc(OC)c1O (centres unmarked)", "D"],
  ["COc1ccnc(C(=O)NC(C)C(=O)OC(C)C(OC(=O)c2ccccc2)C(C)C)c1O (centres unmarked)", "D"],
  ["COc1ccnc(C(=O)N[C@H](C)C(=O)O[C@H](C)[C@@H](Oc2ccccc2)c2ccccc2)c1O", "D"],
  ["CCC(CCC(C)C)C(Oc1ccccc1)C(C)OC(=O)C(C)NC(=O)c1nccc(OC)c1O (centres unmarked)", "A (> 80)"],
  ["CCC(C)C(Oc1ccccc1)C(C)OC(=O)C(C)NC(=O)c1nccc(OC)c1O (centres unmarked)", "A (> 80)"],
  ["CC[C@H](Cc1ccccc1)[C@@H](Oc1ccccc1)[C@H](C)OC(=O)[C@H](C)NC(=O)c1nccc(OC)c1O", "A (> 80)"]
]}

Give the reported value of SEPTTR 1DP disease control rating, HV activity for this record: `CCC(CC)[C@@H](Oc1ccccc1)[C@H](C)OC(=O)[C@H](C)NC(=O)c1nccc(OC)c1O`
A (> 80)

====

Test system: Puccinia triticina
measurement.description: Wheat brown rust (PUCCRT) disease control on wheat seedlings
Format: in vivo
condition.parameters: low volume application, 125.1 g/H, 1 Day Protectant
metric.name: PUCCRT 1DP, LV activity at 125.1 g/H (% Control rating)

{"columns": ["molecule", "result"],
 "data": [
  ["CC[C@H](NC(=O)c1nccc(OC)c1OC(C)=O)C(=O)O[C@@H](C)[C@H](Oc1cc(F)cc(Cl)c1)c1ccccc1 [Cmpd 644]", "A (> 80)"],
  ["CCC(CC)[C@@H](Oc1ccc(-c2ccccc2)cc1)[C@H](C)OC(=O)[C@@H](NC(=O)c1nccc(OC)c1OCOC(C)=O)C(C)C [Cmpd 655]", "A (> 80)"],
  ["COc1ccnc(C(=O)N[C@H](C)C(=O)O[C@H](C)[C@@H](Oc2ccccc2)C(C)C)c1OCOC(C)=O [Cmpd 548]", "D"],
  ["COc1ccnc(C(=O)N[C@@H](C)C(=O)O[C@@H](C)[C@H](Oc2ccc(Cl)cc2)C(C)C)c1OCOC(C)=O [Cmpd 563]", "A (> 80)"]
]}
